# Test system: XA binding sites
# assay_text: Displacement of [3H]XA specific binding by competitors
# Set-up: species or system rat
# condition_parameters: compound at 200 µM; displacement by 200 µM XA set at 100%
assay_readout: displacement of radioactive XA specific binding (%)
All answers are understood in %, so give the number only.

**Query** What value of displacement of radioactive XA specific binding has been recorded for this entry: O=C(O)c1cccnc1C(=O)O
**Result** 40

**Query** What value of displacement of radioactive XA specific binding has been recorded for this entry: O=C(O)c1ccccn1
**Result** 60

**Query** What value of displacement of radioactive XA specific binding has been recorded for this entry: O=C(O)c1cc(=O)c2ccccc2[nH]1
**Result** 30

====

Measured pIC50 by item
# test_target: XA binding sites
# assay_text: Displacement of [3H]XA specific binding by competitors
# pIC50 is unitless: minus log10 of the molar concentration; print number only

Some compounds with known pIC50 results, for comparison:
**Query** What value of pIC50 has been recorded for this entry: O=C(O)c1cc(O)c2cc(-c3ccccc3)cc(O)c2n1 [XT-21]
**Result** 5.34

**Query** What value of pIC50 has been recorded for this entry: Nc1cccc2c(O)cc(C(=O)O)nc12 [NCS-486]
**Result** 4.84

**Query** What value of pIC50 has been recorded for this entry: O=C(O)c1cc(O)c2cccc(O)c2n1 [XA, Xanthurenic acid]
**Result** 6.52

**Query** What value of pIC50 has been recorded for this entry: O=C(O)c1ccccn1 [picolinic acid]
**Result** 4.39

From here, focus on the item given below.
**Query** What value of pIC50 has been recorded for this entry: O=C(O)c1cc(O)c2c(Cl)cc(Cl)c(O)c2n1 [NCS-482]
**Result** 6.46

====

# Tested on: rat brain synaptosomal membranes
# condition_parameters: read-out: EC50 of GTP-γ-S binding; XA 0.5 to 50 µM, 5 µM GDP, 20 mM MgCl2
assay_readout: EC50
Numeric answer plus unit only.

**Query** What value of EC50 has been recorded for this entry: O=C(O)c1cc(O)c2cccc(O)c2n1
**Result** 2000 nM

====

# System: differentiated NCB-20 cells
# assay_text: cells
# condition_parameters: read-out: EC50 of XA activated conductance
assay_readout: pEC50
# pEC50 is unitless: minus log10 of the molar concentration; print number only

**Query** What value of pEC50 has been recorded for this entry: O=C(O)c1cc(O)c2cccc(O)c2n1
**Result** 4.93

====

# test_target: XA binding sites on crude synaptosomal membranes from rat brain
# assay_text: [3H]-XA saturation and kinetic binding on crude synaptosomal membranes from rat brain
# condition_parameters: saturation experiments, crude brain synaptosomal membranes, pH 7.4, 0°C; read-out: dissociation constant (Kd)
assay_readout: pKd
# pKd is unitless: minus log10 of the molar concentration; print number only

**Query** What value of pKd has been recorded for this entry: O=C(O)c1cc(O)c2cccc(O)c2n1
**Result** 6.13

====

# test_target: XA binding sites on crude synaptosomal membranes from rat brain
# assay_text: [3H]-XA saturation and kinetic binding on crude synaptosomal membranes from rat brain
# condition_parameters: from Kob and Koff; read-out: calculated Kd (from rate constants)
assay_readout: Kd
Numeric answer plus unit only.

**Query** What value of Kd has been recorded for this entry: O=C(O)c1cc(O)c2cccc(O)c2n1
**Result** 1.4 µM
